- Tested on: Saccharomyces cerevisiae BY4741 SeMeCo community
- TEST DESCRIPTION: z-score of subpopulation abundance vs DMSO median, subpopulation auxotrophic for HUM; higher = larger share of this subpopulation than in DMSO controls
- RUN CONDITIONS: 10 µM; 24 h; SM minimal medium; subpopulation (auxotrophy): HUM
Where a name gives a salt, the structure may show the parent alone.
Decide using z-score of subpopulation abundance: a value greater than or equal to -0.6 is t, a smaller one is f.

MOLECULE	CATEGORY LABEL
CC[C@@H]1C(=O)OC[C@@H]1Cc1cncn1C [Pilocarpine HCl]	f
O=C(Nc1cc(Cl)cc(Cl)c1O)c1c(O)c(Cl)cc(Cl)c1Cl [Oxyclozanide]	f
NC(=O)c1ncn([C@@H]2O[C@H](CO)[C@@H](O)[C@H]2O)n1	t
O=C(O[C@@H]1C[C@@H]2C[C@H]3C[C@H](C1)N2CC3=O)c1c[nH]c2ccccc12 [Dolasetron Mesylate]	t
Cc1c(C(N)=O)cc([N+](=O)[O-])cc1[N+](=O)[O-] [Dinitolmide]	t

Every entry's value here was drawn from the supplement of paper PMC8975748.
